Test system: Saccharomyces cerevisiae
experimental_details: protein stability index of tFT-peptide fusion (C-terminal peptide) (PSI (0-1 scale)); higher = more stable (slower turnover);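 note: PSI is a weighted mean of sequencing reads over stability bins, variants kept only with over 10 reads, mCherry proximal and sfGFP distal, peptide attached via GGGS linker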
assay_context: genetic background: wild type; temperature: 30 C
property: protein stability index
Keep it simple and answer with nothing but the number.

Here is how some sequences turned out for protein stability index.
{"columns": ["macromolecule_sequence", "target_or_test_system", "property", "obs_value"],
 "data": [
  ["FFTPSKQSQAYC", "Saccharomyces cerevisiae", "protein stability index", 0.662],
  ["RLPPPSPPVPLL", "Saccharomyces cerevisiae", "protein stability index", 0.695],
  ["IYSWSAALFHCR", "Saccharomyces cerevisiae", "protein stability index", 0.75],
  ["CSPGLSGCVSYV", "Saccharomyces cerevisiae", "protein stability index", 0.665],
  ["VFAGLHSLCFFF", "Saccharomyces cerevisiae", "protein stability index", 0.641]
]}

Moving on to the next sequence.
Task: # return recorded protein stability index for entry `GVRCVQGTVTGR`
Result: 0.7

----------
Tested on: Saccharomyces cerevisiae
experimental_details: protein stability index of tFT-peptide fusion (C-terminal peptide) (PSI (0-1 scale)); higher = more stable (slower turnover)
assay_context: genetic background: wild type; temperature: 30 C
property: protein stability index
Keep it simple and answer with nothing but the number.

{"columns": ["macromolecule_sequence", "protein stability index"],
 "data": [
  ["AVRSILYRVATR", 0.729],
  ["PRRPPPLPPASF", 0.713],
  ["RRVELCWAAGVR", 0.641],
  ["FCCFFFPALCCL", 0.493],
  ["EGGIYLQMCVGS", 0.616]
]}

Task: # return recorded protein stability index for entry `TYWAPPFPLSLP`
Result: 0.52

Task: # return recorded protein stability index for entry `KEEYSYQRVGEL`
Result: 0.661

Task: # return recorded protein stability index for entry `QRVWGFRSVFVR`
Result: 0.532

----------
Tested on: Saccharomyces cerevisiae
experimental_details: protein stability index of tFT-peptide fusion (C-terminal peptide) (PSI (0-1 scale)); higher = more stable (slower turnover)
assay_context: genetic background: cdc34-1; temperature: 37 C
Give y when the value for protein stability index is at least 0.4. Give n when it is less.

{"columns": ["macromolecule_sequence", "target_or_test_system", "cat"],
 "data": [
  ["SLIFRVGKFKSL", "Saccharomyces cerevisiae", "y"],
  ["PPWRPVALLLLA", "Saccharomyces cerevisiae", "n"],
  ["QGILVGCCYVLC", "Saccharomyces cerevisiae", "y"],
  ["YIYIFLVWGWYC", "Saccharomyces cerevisiae", "n"],
  ["RVGALLAVTCPA", "Saccharomyces cerevisiae", "y"],
  ["LVCLVASCVRWL", "Saccharomyces cerevisiae", "y"],
  ["TLDWKFGRGGIG", "Saccharomyces cerevisiae", "n"],
  ["HSPRVLLPLYFR", "Saccharomyces cerevisiae", "n"]
]}

Task: Tell me whether protein stability index is at least 0.4 here: `LDFPPLRLILRL`
Result: y

Task: Tell me whether protein stability index is at least 0.4 here: `LLILIVNLRRIG`
Result: n

----------
System: Saccharomyces cerevisiae
experimental_details: protein stability index of tFT-peptide fusion (C-terminal peptide) (PSI (0-1 scale)); higher = more stable (slower turnover)
assay_context: genetic background: wild type; temperature: 30 C
Just so you know, the groups by protein stability index go like this: interval 1 = under 0.6, interval 2 = from 0.6 up to 0.7, interval 3 = 0.7 and over

Task: Category of `PFRPPPLLPFSP` , please.
Result: interval 3

Task: Category of `LRREQIKEAKHR` , please.
Result: interval 2

Task: Category of `SHPFIRSLVFLA` , please.
Result: interval 1

Task: Category of `GSGELYMGRLVE` , please.
Result: interval 2

Task: Category of `FFPPPSSFCLSL` , please.
Result: interval 3

Task: Category of `PLATLIPPLIPS` , please.
Result: interval 1

Task: Category of `PACVLVRRGWYL` , please.
Result: interval 3

Task: Category of `QPKEGGRPKKKE` , please.
Result: interval 2

Task: Category of `NVEPWTRGMGSA` , please.
Result: interval 2

Task: Category of `VHRPFDGFSRAG` , please.
Result: interval 2

Task: Category of `FFCFFWLFHWFG` , please.
Result: interval 1

Task: Category of `LFHVWSLRFFWL` , please.
Result: interval 1

Task: Category of `FKVVLGRLGVRA` , please.
Result: interval 1

Task: Category of `PYRFRDRTYEEL` , please.
Result: interval 2

Task: Category of `PPYIMCPFTPGG` , please.
Result: interval 2

----------
System: Saccharomyces cerevisiae
experimental_details: protein stability index of tFT-peptide fusion (C-terminal peptide) (PSI (0-1 scale)); higher = more stable (slower turnover)
assay_context: genetic background: wild type; temperature: 30 C
Give Criterion met when the value for protein stability index is at least 0.7. Give Criterion not met when it is less.

Task: Tell me whether protein stability index is at least 0.7 here: `IRPPPPPPPRAA`
Result: Criterion not met

Task: Tell me whether protein stability index is at least 0.7 here: `CFCWLFLVGRAD`
Result: Criterion not met

Task: Tell me whether protein stability index is at least 0.7 here: `NKQKKDEKNKTE`
Result: Criterion met

Task: Tell me whether protein stability index is at least 0.7 here: `DFVRVVGDLRWE`
Result: Criterion not met

Task: Tell me whether protein stability index is at least 0.7 here: `GVWRCGVVGLSL`
Result: Criterion not met

Task: Tell me whether protein stability index is at least 0.7 here: `VYGVLLGWGCVV`
Result: Criterion not met

Task: Tell me whether protein stability index is at least 0.7 here: `SSRPPLPPPRIH`
Result: Criterion not met

----------
The reader will find reported protein stability index values listed item by item below.
System: Saccharomyces cerevisiae
experimental_details: protein stability index of tFT-peptide fusion (C-terminal peptide) (PSI (0-1 scale)); higher = more stable (slower turnover)
assay_context: genetic background: wild type; temperature: 30 C
Keep it simple and answer with nothing but the number.

Here is how some sequences turned out for protein stability index.
{"columns": ["macromolecule_sequence", "protein stability index"],
 "data": [
  ["PPRPPCSPLPPR", 0.678],
  ["PTRSEGYSVVYM", 0.693]
]}

Task: # return recorded protein stability index for entry `GRAVPKTHPGNL`
Result: 0.769

Task: # return recorded protein stability index for entry `FLIFFVCLFRWK`
Result: 0.328

Task: # return recorded protein stability index for entry `FPFHSRPCLPVL`
Result: 0.518

Task: # return recorded protein stability index for entry `FPPLIPLPINHP`
Result: 0.631

Task: # return recorded protein stability index for entry `ANHRPCIPPPPR`
Result: 0.657

Task: # return recorded protein stability index for entry `PIRPSPPVLPPL`
Result: 0.647

----------
Test system: Saccharomyces cerevisiae
experimental_details: protein stability index of tFT-peptide fusion (C-terminal peptide) (PSI (0-1 scale)); higher = more stable (slower turnover)
assay_context: genetic background: das1 deletion; temperature: 30 C
property: protein stability index

{"columns": ["macromolecule_sequence", "protein stability index"],
 "data": [
  ["GALVVSWAEVLC", 0.402]
]}

Task: # return recorded protein stability index for entry `CACAVPFLLLFF`
Result: 0.374

Task: # return recorded protein stability index for entry `SYVLLQSYVSLV`
Result: 0.474

Task: # return recorded protein stability index for entry `LMLGARVSRRIH`
Result: 0.673

Task: # return recorded protein stability index for entry `VFLVGFRVTLDS`
Result: 0.219

Task: # return recorded protein stability index for entry `FFFFLVPVHCVI`
Result: 0.261

Task: # return recorded protein stability index for entry `DFVYFPPIPVSS`
Result: 0.253

Task: # return recorded protein stability index for entry `YYLVKCVYLRTT`
Result: 0.371

Task: # return recorded protein stability index for entry `VFGSRCLLTVVV`
Result: 0.367

Task: # return recorded protein stability index for entry `QGILVGCCYVLC`
Result: 0.313

----------
Tested on: Saccharomyces cerevisiae
experimental_details: protein stability index of tFT-peptide fusion (C-terminal peptide) (PSI (0-1 scale)); higher = more stable (slower turnover)
assay_context: genetic background: wild type; temperature: 30 C
property: protein stability index

Here is how some sequences turned out for protein stability index.
{"columns": ["macromolecule_sequence", "protein stability index"],
 "data": [
  ["PPSLPPPSPAPL", 0.682],
  ["IGLSIWSVVSAL", 0.392],
  ["VVFFPVLSYFFR", 0.649],
  ["VGLAVWAAKLGR", 0.739],
  ["CFGFSLKFGTGK", 0.668]
]}

Task: Check Saccharomyces cerevisiae data and give protein stability index for `HPAGPSGRLLPT` .
Result: 0.685

Task: Check Saccharomyces cerevisiae data and give protein stability index for `PSPPPSISIPPS` .
Result: 0.73
